Biological target: BK β1 subunit (KCNMB1 product) (Rattus norvegicus)
Construct: FLAG (DYKDDDDK); made in house; host or cells: CHO cells, transient transfection, anti-flag immunoprecipitation
Sequence (P97678 whole entry): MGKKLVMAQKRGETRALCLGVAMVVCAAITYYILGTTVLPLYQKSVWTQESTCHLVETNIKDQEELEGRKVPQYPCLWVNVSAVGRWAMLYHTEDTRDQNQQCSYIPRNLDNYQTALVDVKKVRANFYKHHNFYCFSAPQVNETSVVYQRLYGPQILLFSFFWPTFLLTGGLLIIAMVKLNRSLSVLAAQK
Test: Thermal unfolding (microscale thermophoresis, Prometheus) of purified wt β1
Type: binding
Settings: Δ onset to inflection vs concentration; read-out: high-affinity binding process: 50% value
Method: BK channel-forming slo1 cDNA (cbv1 isoform; AY330293) was cloned from rat cerebral artery SM cells, and inserted into pcDNA3.1 vector as described. […] Wt β1, wt β4 and mutant constructs were purified by immunoprecipitation using Dynabeads Protein G Kit (10007D by Invitrogen) and following the manufacturer’s instructions. […] The unfolding profile of a protein is a plot of its fluorescence signal against temperature. […] During the heating process, fluorescence is recorded at 330 and 350 nm. […]
measurement_label: EC50 (nM)
Entry rule: numbers only, all in nM.

The compound listed as CC(=O)[C@H]1CC[C@H]2[C@@H]3CCC4=CC(=O)CC[C@]4(C)[C@H]3CC[C@]12C has a reported EC50 of 40
